Record: compiled IC50 on MAGL (Homo sapiens, UniProt Q99685) from multiple reports.

>  <compound>
CS(=O)(=O)Nc1ccn(C(=O)N2CCN(Cc3ccc(C(F)(F)F)cc3N3CCN(C4CC4)CC3)CC2)n1

>  <op>
≤

>  <IC50 (nM)>
100

$$$$
>  <compound>
O=C(c1ccc2c(-c3cccc(C(F)(F)F)c3)c[nH]c2c1)N1CC(N2CCN(C(=O)c3nccs3)CC2)C1

>  <op>
<

>  <IC50 (nM)>
5

$$$$
>  <compound>
Cc1cc(C(=O)N2CC(N3CCN(C(=O)c4nccs4)CC3)C2)sc1-c1ccc(C(F)(F)F)cc1

>  <op>
<

>  <IC50 (nM)>
5

$$$$
>  <compound>
Cc1c(C(=O)N2CCN(C3CN(C(=O)c4nc(C(F)(F)F)cs4)C3)CC2)sc2cc(C(F)(F)F)ccc12

>  <op>
=

>  <IC50 (nM)>
2430

$$$$
>  <compound>
O=C1CO[C@H]2CCN(C(=O)N3CC(C(=O)Nc4ccc(F)cc4Cl)C3)C[C@H]2N1

>  <op>
=

>  <IC50 (nM)>
1250

$$$$
>  <compound>
Cc1c(-c2ccccc2)oc2c(C(=O)N3CC(N4CCN(C(=O)c5nccs5)CC4)C3)cccc2c1=O

>  <op>
=

>  <IC50 (nM)>
338

$$$$
>  <compound>
COc1cccc(C(=O)N2CCN3C[C@H](c4ccc(F)c(Cl)c4)OC[C@@]3(C)C2)c1Cl (stereo in doubt)

>  <op>
=

>  <IC50 (nM)>
1910

$$$$
>  <compound>
CC(C)(C)Cn1nnc(-c2ncc(C(=O)N3CCN(c4nc5nc(Cl)ccc5o4)CC3)cc2F)n1

>  <op>
=

>  <IC50 (nM)>
363

$$$$
